B1: LINE1-mini (parent)
chain: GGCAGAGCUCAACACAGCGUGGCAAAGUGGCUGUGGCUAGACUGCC

- Variants of: B1
- measurement_description: self-cleavage, relative activity (ratio to wild type); higher = more cleavage; in vitro, sequencing; the parent is a self-cleaving ribozyme
property_name: self-cleavage
When you answer, write just the number.

Before answering, review these 6 worked examples.
[
  {
    "mutation_notation": "C13U G17A",
    "property_name": "self-cleavage",
    "measured_result": 0.1
  },
  {
    "mutation_notation": "C18A G44C",
    "property_name": "self-cleavage",
    "measured_result": 0.22
  },
  {
    "mutation_notation": "G7C G35C",
    "property_name": "self-cleavage",
    "measured_result": 0.06
  },
  {
    "mutation_notation": "G19A A25U",
    "property_name": "self-cleavage",
    "measured_result": 1.66
  },
  {
    "mutation_notation": "A11G C46U",
    "property_name": "self-cleavage",
    "measured_result": 0.02
  },
  {
    "mutation_notation": "G1A A16G",
    "property_name": "self-cleavage",
    "measured_result": 0.25
  }
]

For the variant shown here, U20A G27C , give the reported self-cleavage.
0.24

For the variant shown here, C3U C46U , give the reported self-cleavage.
0.21

For the variant shown here, G29A C45A , give the reported self-cleavage.
1.03

For the variant shown here, G5U G30A , give the reported self-cleavage.
0.18

For the variant shown here, A24U C42G , give the reported self-cleavage.
0.06
